Recorded values, source ChEMBL document CHEMBL3425423.

tested_target: Voltage-gated inwardly rectifying potassium channel KCNH2 (Homo sapiens, UniProt Q12809)
Sequence (Q12809 whole entry): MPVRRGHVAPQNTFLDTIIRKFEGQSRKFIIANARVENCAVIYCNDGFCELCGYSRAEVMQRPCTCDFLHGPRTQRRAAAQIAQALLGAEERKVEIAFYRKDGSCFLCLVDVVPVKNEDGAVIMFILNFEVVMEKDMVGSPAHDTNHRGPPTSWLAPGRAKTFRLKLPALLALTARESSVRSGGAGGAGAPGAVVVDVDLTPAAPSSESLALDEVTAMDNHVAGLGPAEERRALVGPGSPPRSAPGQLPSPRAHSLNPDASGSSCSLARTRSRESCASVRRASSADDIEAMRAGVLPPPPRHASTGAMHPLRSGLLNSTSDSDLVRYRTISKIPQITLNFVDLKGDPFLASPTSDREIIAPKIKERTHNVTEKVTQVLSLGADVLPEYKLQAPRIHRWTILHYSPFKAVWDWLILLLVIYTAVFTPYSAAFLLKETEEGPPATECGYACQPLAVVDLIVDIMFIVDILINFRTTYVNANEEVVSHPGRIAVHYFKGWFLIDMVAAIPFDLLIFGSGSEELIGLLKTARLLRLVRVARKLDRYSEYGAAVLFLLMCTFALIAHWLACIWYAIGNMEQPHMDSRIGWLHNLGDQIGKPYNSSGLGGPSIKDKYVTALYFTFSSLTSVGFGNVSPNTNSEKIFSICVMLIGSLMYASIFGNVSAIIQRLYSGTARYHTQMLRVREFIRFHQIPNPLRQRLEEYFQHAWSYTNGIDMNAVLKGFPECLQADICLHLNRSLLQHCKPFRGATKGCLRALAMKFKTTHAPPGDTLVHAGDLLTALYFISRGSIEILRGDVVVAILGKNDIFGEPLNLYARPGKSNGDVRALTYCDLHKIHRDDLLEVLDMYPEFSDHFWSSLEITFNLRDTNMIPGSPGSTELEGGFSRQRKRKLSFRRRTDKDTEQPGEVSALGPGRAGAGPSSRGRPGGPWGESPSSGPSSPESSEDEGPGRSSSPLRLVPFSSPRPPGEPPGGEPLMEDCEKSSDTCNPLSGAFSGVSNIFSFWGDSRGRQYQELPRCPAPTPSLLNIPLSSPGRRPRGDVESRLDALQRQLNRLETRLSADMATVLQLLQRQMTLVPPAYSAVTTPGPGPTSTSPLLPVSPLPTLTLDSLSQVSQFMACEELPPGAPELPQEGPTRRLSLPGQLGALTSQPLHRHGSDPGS
protocol: Displacement of MK499 from human ERG
pIC50: −log10 of the molar value.
Listed below: pIC50 values for each entry.

# count of solved cases: 3
In [3]: df
Out[3]:
                                   molecule                             tested_target  result
0  O=C1COc2cc(F)c(CNC34CCC(C[C@]5(O)Cn6c(=O)ccc7ncc(F)c5c76)(CC3)OC4)nc2N1  Voltage-gated inwardly rectifying potassium channel KCNH2 (Homo sapiens, UniProt Q12809)  < 4.22
1  CN1CCOc2ccc(CNC34CCC(C[C@]5(O)Cn6c(=O)ccc7ncc(F)c5c76)(CC3)OC4)nc21  Voltage-gated inwardly rectifying potassium channel KCNH2 (Homo sapiens, UniProt Q12809)  < 4.22
2  O=c1ccc2ncc(F)c3c2n1C[C@@]3(O)CC12CCC(NCc3cc4c(cn3)S(=O)(=O)CCO4)(CC1)CO2  Voltage-gated inwardly rectifying potassium channel KCNH2 (Homo sapiens, UniProt Q12809)  < 4.22

[ask] What value of pIC50 has been reported for the following molecule? O=C1COc2cc(Cl)c(CNC34CCC(C[C@]5(O)Cn6c(=O)ccc7ncc(F)c5c76)(CC3)OC4)nc2N1
[reply] 4.56

[ask] What value of pIC50 has been reported for the following molecule? CC1COc2cc(CNC34CCC(C[C@]5(O)Cn6c(=O)ccc7ncc(F)c5c76)(CC3)OC4)ncc2O1 (stereo in doubt; 20)
[reply] < 4.22

[ask] What value of pIC50 has been reported for the following molecule? O=c1ccc2ncc(F)c3c2n1C[C@@]3(O)CC12CCC(NCc3ccc4c(n3)NCCN4)(CC1)CO2
[reply] < 4.22

[ask] What value of pIC50 has been reported for the following molecule? CCc1cc2c(nc1CNC13CCC(C[C@]4(O)Cn5c(=O)ccc6ncc(F)c4c65)(CC1)OC3)NC(=O)CO2
[reply] < 4.22

[ask] What value of pIC50 has been reported for the following molecule? O=c1ccc2ncc(F)c3c2n1C[C@@]3(O)CC12CCC(NCc3cc4c(cn3)OCCS4(=O)=O)(CC1)CO2
[reply] < 4.22
